Value source: PubChem BioAssay (NCI)

# System: MDA-MB-468 breast
# experimental_details: NCI tumour cell line growth inhibition, 48 h
outcome_measure: log10(TGI) (log10 of the value in µM)
Heads up: the numbers are on a log10 scale; they represent TGI in µM.

In: Name the reported log10(TGI) value associated with the compound O=C(CN1CCN(c2ccccc2)CC1)N1CCN(c2nnc(-c3ccc(Cl)cc3)c(-c3ccc(Cl)cc3)n2)CC1
Out: 1.98

In: Name the reported log10(TGI) value associated with the compound Cn1ccnc1C(=O)/C=C/c1ccc(CC(=O)Nc2ccc(C(F)(F)F)cc2)cc1
Out: 0.67

In: Name the reported log10(TGI) value associated with the compound FC(F)(F)c1ccc(-c2cnc(Cl)nc2NCc2cc(C(F)(F)F)cc(C(F)(F)F)c2)cc1
Out: 0.96

In: Name the reported log10(TGI) value associated with the compound C[C@]12CCc3sc(Nc4ccc(O)cc4)nc3C1=CC[C@@H]1[C@@H]2CC[C@]2(C)C(=O)CC[C@@H]12
Out: 0.76

In: Name the reported log10(TGI) value associated with the compound CC(C)c1ccc(Nc2nccc(-c3cnn4ncccc34)n2)cc1
Out: -0.08

In: Name the reported log10(TGI) value associated with the compound Nc1nc(N)c(N=O)c(OCC2CCCCC2)n1
Out: 1.72

In: Name the reported log10(TGI) value associated with the compound COc1ccc(-c2nn(-c3cccc(Cl)c3)cc2-c2cc(-c3ccccc3)nc(N)n2)cc1
Out: 0.56

In: Name the reported log10(TGI) value associated with the compound Cc1cccc(/C=C/c2ccc(NC(=S)NCCCCN(C)C)cc2)c1
Out: 1.42

In: Name the reported log10(TGI) value associated with the compound CN(C)CC1CCCCCC(CN(C)C)C1=O (centres undefined)
Out: 0.40

In: Name the reported log10(TGI) value associated with the compound O=C(CCCSc1nc(-c2ccccc2)cc(-c2ccc(Cl)cc2)n1)NO
Out: 0.59

In: Name the reported log10(TGI) value associated with the compound CCN(CC)c1ccc(C(=N)c2ccc(N(C)C)cc2)cc1
Out: 0.35

In: Name the reported log10(TGI) value associated with the compound CCCCNC(=O)NS(=O)(=O)c1ccc(N2N=C(c3cc(C)ccc3C)CC2c2cc(OC)c(OC)c(OC)c2)cc1 (centres undefined)
Out: 0.73

In: Name the reported log10(TGI) value associated with the compound C=C1CCC2C3(C)COC(c4ccccc4Br)OC3CCC2(C)C1C/C=C1/C(=O)OCC1OC(C)=O (centres undefined)
Out: 0.45

In: Name the reported log10(TGI) value associated with the compound O=C(OCCBr)c1ccc(Cl)c([N+](=O)[O-])c1
Out: 0.61

In: Name the reported log10(TGI) value associated with the compound CN(C)c1ccc(C(=C2C=CC(=[N+](C)C)C=C2)c2ccc(N(C)C)cc2)cc1
Out: -0.37

In: Name the reported log10(TGI) value associated with the compound COc1cc2cc(C(=O)N3C[C@@H](CCl)c4c3cc(OC(=O)N3CCN(C(=O)CCC(=O)N5CCN(C)CC5)[C@@H]5CSSC[C@@H]53)c3ccccc43)[nH]c2c(OC)c1OC
Out: -0.79
